Source listed as ChEMBL document CHEMBL1158288.

test: Antiinflammatory activity in NMRI mouse macrophages assessed as inhibition of A23187-induced PGE2 release at 100 uM by Ellman's method relative to control; assay type: functional; conditions: Macrophage
Please go through the items and note down their inhibition at 100 µM.
Write it as a number; the unit % goes unstated.

[in] Which inhibition at 100 µM reading was recorded for the molecule COc1cc2ccc(=O)oc2cc1O[C@@H]1O[C@H](CO)[C@@H](O)[C@H](O)[C@H]1O ?
[out] 75.7

[in] Which inhibition at 100 µM reading was recorded for the molecule COc1ccc2ccc(=O)oc2c1 ?
[out] 65.7

[in] Which inhibition at 100 µM reading was recorded for the molecule COc1ccc2c(c1)c(CC(=O)O)c(C)n2C(=O)c1ccc(Cl)cc1 ?
[out] 78.1

[in] Which inhibition at 100 µM reading was recorded for the molecule COc1cc2ccc(=O)oc2cc1O ?
[out] 77.4

[in] Which inhibition at 100 µM reading was recorded for the molecule O=c1ccc2cc(O)c(O)cc2o1 ?
[out] 71.7
